assay: Cytotoxicity against African green monkey Vero cells assessed as reduction in metabolic activity by MTS assay; format: ADME, cell-based; conditions: chlorocebus sabaeus, Vero cells
quantity: CC50 (µM)
Give just the numeric value; µM need not be written.

chemical_string=CC(=O)O[C@H]1[C@@H](OC(C)=O)C(C)(C)/C=C/[C@H](C)C(=O)[C@@]2(O)C[C@@](C)(OC(C)=O)[C@H](OC(C)=O)[C@@H]2[C@H]2OC(=O)CC[C@@]2(OC(=O)C(C)C)[C@@H]1OC(=O)C(C)C test_result=36

Now look at this entry.
Incoming: Please look up its CC50: `C=C1[C@H](OC(=O)C(C)C)[C@@H](OC(C)=O)[C@@H](OC(C)=O)C(C)(C)/C=C/[C@H](C)C(=O)[C@@]2(O)C[C@@](C)(OC(C)=O)[C@H](OC(=O)COC(=O)c3ccccc3)[C@@H]2[C@H]1OC(C)=O`
Outgoing: 17.7
